B1: Caulobacter ParB omega fusion; a variant is named by its letters at X, in order, B8GW30 (parent)
chain: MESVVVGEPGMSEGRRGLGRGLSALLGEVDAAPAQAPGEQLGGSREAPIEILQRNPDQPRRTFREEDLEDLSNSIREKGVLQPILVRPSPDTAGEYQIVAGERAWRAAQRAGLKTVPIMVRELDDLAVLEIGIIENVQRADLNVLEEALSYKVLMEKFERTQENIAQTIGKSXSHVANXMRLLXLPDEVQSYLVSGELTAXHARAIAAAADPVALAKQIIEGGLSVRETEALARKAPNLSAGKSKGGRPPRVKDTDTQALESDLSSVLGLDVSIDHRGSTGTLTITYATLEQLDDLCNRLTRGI

Variants of: B1
assayRemarks: one-hybrid fitness for binding parS DNA (scaled: cognate 1, non-cognate 0); higher = stronger binding
runConditions: with parS DNA site
The full ranking holds about 81,000 sequences; the median of “one-hybrid fitness for binding parS DNA” is about -0.17, and the highest 2% start at about 0.51. This excerpt belongs to a sample that is enriched for the highest values.
Record 1 whenever one-hybrid fitness for binding parS DNA is at 0.5 or higher; record 0 when lower.

[[record]]
variantname = "DHQQ"
cat = 0

[[record]]
variantname = "RRPM"
cat = 0

[[record]]
variantname = "IILS"
cat = 0

[[record]]
variantname = "RIVY"
cat = 0

[[record]]
variantname = "RFKD"
cat = 0

[[record]]
variantname = "LRFF"
cat = 0

[[record]]
variantname = "RTKY"
cat = 1

[[record]]
variantname = "RPKY"
cat = 0

[[record]]
variantname = "VITG"
cat = 0

[[record]]
variantname = "RRIQ"
cat = 0

[[record]]
variantname = "RRIC"
cat = 1

[[record]]
variantname = "MWHG"
cat = 0

[[record]]
variantname = "FALT"
cat = 0

[[record]]
variantname = "PCIV"
cat = 0

[[record]]
variantname = "NLCV"
cat = 0

[[record]]
variantname = "RRIY"
cat = 0

[[record]]
variantname = "RFVN"
cat = 0

[[record]]
variantname = "RFVG"
cat = 1

[[record]]
variantname = "RNRK"
cat = 0

[[record]]
variantname = "ANYG"
cat = 0

